experiment: proliferation blockers of H69AR lung cancer cells, primary screen, cell-based, human, 86K library (AID 598); conditions: H69AR lung tumor viability, ATP luminescence, 72 h; at 10 µM; active compounds read low;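 also: multidrug resistant small cell line overexpressing MRP-1 efflux transporter; 100% = mean luminescence of untreated control wells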
About 5,100 (6%) of roughly 85,000 compounds were called active. This excerpt belongs to a sample that is enriched for actives.
READOUT TYPE: viability (%)

INSERT INTO assay_data (compound, value_reported) VALUES
  ('Cc1ccc(-n2c(SCC(=O)NCc3ccc4c(c3)OCO4)nnc2-c2cccnc2)c(C)c1', 35.1),
  ('Cc1nn(C(C)CC(=O)O)c(C)c1C (stereo not drawn)', 98.2),
  ('O=C(O)CCC(=O)NCc1ccc(C(=O)O)cc1', 96),
  ('CCCCOc1ccc(CSC(=N)N)cc1[N+](=O)[O-]', 5.08),
  ('Cc1nnc(C)n1/N=C/c1ccc(C(C)C)cc1', 106),
  ('CCc1c(C)nc2cc(-c3cccs3)[nH]n2c1=O', 91.8),
  ('COc1ccc(C2C(C(=O)N3CCN(c4ccc(OC)cc4)CC3)c3ccccc3C(=O)N2C)cc1 (stereo not drawn)', 32.2),
  ('Cc1c(-c2ccccc2)nc(N)c(C#N)c1-c1cccs1', 77);

====

experiment: proliferation blockers of H69AR lung cancer cells, primary screen, cell-based, human, 86K library (AID 598); details: H69AR lung tumor viability, ATP luminescence, 72 h; at 10 µM;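 also: multidrug resistant small cell line overexpressing MRP-1 efflux transporter; 100% = mean luminescence of untreated control wells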
The whole screen tested about 85,000 compounds, of which about 5,100 (6%) were called active.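 How the source made its calls: active means viability at or below 40%; inactive means viability above 40%.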 The sample holds actives, similar compounds and a random draw of the others, so the mix is not that of the screen.
Outcome codes: active, inactive

INSERT INTO measurements (molecule, discrete_label) VALUES
  ('COc1ccc(NC(=O)/C(Cl)=C(/Cl)S(=O)Cc2ccc(C)cc2)cn1 (stereo not given)', 'active'),
  ('COc1nc(NC2CCCCC2)nc(N2CCCCCC2)n1', 'inactive'),
  ('Cc1nnc(NCCO)c2ccccc12', 'inactive'),
  ('CCOC(=O)C1=C(C)NC(SC)=NC1c1ccccc1 (stereo not given)', 'inactive'),
  ('Cc1ccc(S(=O)(=O)N2CCC(C(=O)NCC3CCCO3)CC2)cc1 (stereo not given)', 'inactive'),
  ('Cc1ccc(OCC(O)CN2CCN(CC(O)COc3ccc(C)cc3Cl)CC2)c(Cl)c1 (stereo not given)', 'active'),
  ('COC(=O)c1ccccc1NC(=O)Cc1ccccc1OC', 'inactive'),
  ('CC(C)c1ccc(NC(=O)NC2CCCCC2)cc1', 'active'),
  ('COCC(=O)Nc1ccc(Br)cc1', 'inactive'),
  ('CC(=O)OC(C(=O)NC1CCCCC1)c1ccccc1 (stereo not given)', 'inactive'),
  ('Cc1cc2nc(C)n(CCCNC(=O)Nc3ccccc3)c2cc1C', 'inactive'),
  ('O=c1c(-c2ccc3c(c2)OCCO3)c(C(F)(F)F)oc2cc(O)cc(O)c12', 'active'),
  ('COc1ccccc1NC(=O)CC(NCCN(C)C)C(=O)O (stereo not given)', 'inactive'),
  ('COc1cccc(OCC(O)CN2CCN(CCO)CC2)c1 (stereo not given)', 'inactive'),
  ('O=C(N/N=C\c1cccc(Br)c1)c1ccccc1-n1cccc1', 'inactive');

====

experiment: proliferation blockers of H69AR lung cancer cells, primary screen, cell-based, human, 86K library (AID 598); conditions: H69AR lung tumor viability, ATP luminescence, 72 h; at 10 µM; active compounds read low;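 also: multidrug resistant small cell line overexpressing MRP-1 efflux transporter; 100% = mean luminescence of untreated control wells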
Out of some 85,000 compounds screened, about 5,100 (6%) were called active. The list comes from a sample in which actives are over-represented; it also holds close analogues and randomly drawn compounds.
Mark criterion met only for viability values smaller than 90%; exact matches and larger values are criterion not met.

INSERT INTO results (compound, discrete_label) VALUES
  ('O=C(c1ccc2c(c1)OCO2)N1CCOCC1', 'criterion not met'),
  ('CCCNC(=S)N1CCC(NC(=O)C23CC4CC(CC(C4)C2)C3)CC1', 'criterion not met'),
  ('Cc1ccc(-c2noc(CSc3nnc(-c4ccccc4)n3C)n2)cc1', 'criterion met'),
  ('Cc1noc(/C=C/c2ccco2)c1S(=O)(=O)N1CCC(C(=O)N2CCc3ccccc32)CC1', 'criterion met'),
  ('COc1cc(OC)nc(NC(=O)CCl)n1', 'criterion not met'),
  ('Cc1cccc2cc(C#N)c(N3CCCC3)nc12', 'criterion not met'),
  ('CCn1c(CC(=O)Nc2ccc(C)cc2)nnc1SCC(=O)Nc1nc(C)cs1', 'criterion not met'),
  ('CC(C)C(=O)Nc1c(C(=O)c2ccc(F)cc2)oc2ccccc12', 'criterion met'),
  ('CC(C)(C)C1CCc2c(sc3nc(SCC(N)=O)nc(N)c23)C1 (centres undefined)', 'criterion met'),
  ('CC(C)C(=O)Nc1ccc2c(c1)oc1ccccc12', 'criterion met');
